System: J774.1
method: Inhibition of LPS-induced nitric oxide production in mouse J774.1 cells after 24 hrs by griess assay
Assay type: functional, cell-based
condition details: J774.1, 24 h
Below, each entry is listed alongside its reported IC50.

Would you kindly share the measured IC50 for `C/C=C(\C)C(=O)O[C@@H]1/C=C\C2=C3CC(=O)O[C@@H](c4ccoc4)[C@]3(C)CC[C@@H]2[C@@]2(C)C(=O)C[C@]1(C)[C@@H]2CC(=O)OC` ?
20.2 µM

// switching to the query compound
Would you kindly share the measured IC50 for `CNC(=N)NCCC[C@H](N)C(=O)O` ?
13.8 mg/L
